Reference for the values: PubChem BioAssay AID743472

Assay: A549 cell cytotoxicity, dose response, cytotoxicity control, luminescence, dry powder, set 12 (AID 743472)
Conditions: A549 viability, CellTiter-Glo ATP luminescence, 72 h; at 26 µM (top of the series)
Collected activity change, negative = cytotoxicity values appear next to each entry.
recorded-metric: activity change, negative = cytotoxicity (%)

[[record]]
compound = "COC(=O)c1ccc(C2C(C#N)=C(N)Oc3cc(N)ccc32)cc1 (stereo not given)"
measured_result = 4.1

[[record]]
compound = "CN(C(=O)CCCOc1ccc2[nH]c(=O)ccc2c1)C1CCCCC1"
measured_result = -2.41

[[record]]
compound = "COc1cc(Nc2ncc3c(n2)-c2ccc(Cl)cc2C(c2c(F)cccc2OC)=NC3)ccc1C(=O)O"
measured_result = -19.8

[[record]]
compound = "COc1ccc(C2CNC(=O)C2)cc1OC1CCCC1 (stereo not given)"
measured_result = 3.58

[[record]]
compound = "CCC(C)(C)C(=O)O[C@H]1C[C@@H](C)C=C2C=C[C@H](C)[C@H](CC[C@@H]3C[C@@H](O)CC(=O)O3)[C@H]21"
measured_result = 2.27

